Ref: paper PMC9120017

Target: mouse TMEM16A mutant S517A (Mus musculus, UniProt Q8BHY3, S517A)
Construct: expressed in transfected cells; host or cells: HEK293T
Sequence (Q8BHY3 1-960 S517A): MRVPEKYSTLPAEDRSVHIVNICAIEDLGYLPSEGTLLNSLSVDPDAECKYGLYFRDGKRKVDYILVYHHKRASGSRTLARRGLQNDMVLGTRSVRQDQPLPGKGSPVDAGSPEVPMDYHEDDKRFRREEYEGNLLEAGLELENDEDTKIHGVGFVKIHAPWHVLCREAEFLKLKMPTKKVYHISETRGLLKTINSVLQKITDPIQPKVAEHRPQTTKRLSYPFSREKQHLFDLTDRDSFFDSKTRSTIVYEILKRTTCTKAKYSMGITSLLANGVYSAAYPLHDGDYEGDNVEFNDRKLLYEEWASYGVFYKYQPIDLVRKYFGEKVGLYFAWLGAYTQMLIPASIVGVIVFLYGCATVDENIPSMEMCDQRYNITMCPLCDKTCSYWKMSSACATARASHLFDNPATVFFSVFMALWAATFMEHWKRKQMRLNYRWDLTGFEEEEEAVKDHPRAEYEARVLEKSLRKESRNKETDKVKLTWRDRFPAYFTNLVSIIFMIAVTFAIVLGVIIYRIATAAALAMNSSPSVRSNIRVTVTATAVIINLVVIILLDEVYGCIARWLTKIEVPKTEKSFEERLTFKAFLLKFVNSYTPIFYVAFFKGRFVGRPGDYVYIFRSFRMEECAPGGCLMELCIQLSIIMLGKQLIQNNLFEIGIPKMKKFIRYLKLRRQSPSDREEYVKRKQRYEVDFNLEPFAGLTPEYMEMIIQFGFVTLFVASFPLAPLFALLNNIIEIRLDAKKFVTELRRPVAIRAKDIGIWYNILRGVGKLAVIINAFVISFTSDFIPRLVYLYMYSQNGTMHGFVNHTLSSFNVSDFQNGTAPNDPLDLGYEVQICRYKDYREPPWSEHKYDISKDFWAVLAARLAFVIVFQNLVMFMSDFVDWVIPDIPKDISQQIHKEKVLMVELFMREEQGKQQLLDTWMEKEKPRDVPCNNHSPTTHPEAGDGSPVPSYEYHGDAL
Experiment: Inside-out patch recording of 1PBC block, mutant S517A
Format: cell-based
Conditions: 80 mV; 2 µM Ca2+
recorded metric: pIC50
Lab note — pIC50 values are minus log10 of concentrations in M.

Return pIC50 (reported value) for this compound: `N#Cc1c(C(F)(F)F)cc(O)n2c1nc1ccccc12`
5.66

---

Molecular target: mouse TMEM16A mutant R535A (Mus musculus, UniProt Q8BHY3, R535A)
Construct: expressed in transfected cells; host or cells: HEK293T
Sequence (Q8BHY3 1-960 R535A): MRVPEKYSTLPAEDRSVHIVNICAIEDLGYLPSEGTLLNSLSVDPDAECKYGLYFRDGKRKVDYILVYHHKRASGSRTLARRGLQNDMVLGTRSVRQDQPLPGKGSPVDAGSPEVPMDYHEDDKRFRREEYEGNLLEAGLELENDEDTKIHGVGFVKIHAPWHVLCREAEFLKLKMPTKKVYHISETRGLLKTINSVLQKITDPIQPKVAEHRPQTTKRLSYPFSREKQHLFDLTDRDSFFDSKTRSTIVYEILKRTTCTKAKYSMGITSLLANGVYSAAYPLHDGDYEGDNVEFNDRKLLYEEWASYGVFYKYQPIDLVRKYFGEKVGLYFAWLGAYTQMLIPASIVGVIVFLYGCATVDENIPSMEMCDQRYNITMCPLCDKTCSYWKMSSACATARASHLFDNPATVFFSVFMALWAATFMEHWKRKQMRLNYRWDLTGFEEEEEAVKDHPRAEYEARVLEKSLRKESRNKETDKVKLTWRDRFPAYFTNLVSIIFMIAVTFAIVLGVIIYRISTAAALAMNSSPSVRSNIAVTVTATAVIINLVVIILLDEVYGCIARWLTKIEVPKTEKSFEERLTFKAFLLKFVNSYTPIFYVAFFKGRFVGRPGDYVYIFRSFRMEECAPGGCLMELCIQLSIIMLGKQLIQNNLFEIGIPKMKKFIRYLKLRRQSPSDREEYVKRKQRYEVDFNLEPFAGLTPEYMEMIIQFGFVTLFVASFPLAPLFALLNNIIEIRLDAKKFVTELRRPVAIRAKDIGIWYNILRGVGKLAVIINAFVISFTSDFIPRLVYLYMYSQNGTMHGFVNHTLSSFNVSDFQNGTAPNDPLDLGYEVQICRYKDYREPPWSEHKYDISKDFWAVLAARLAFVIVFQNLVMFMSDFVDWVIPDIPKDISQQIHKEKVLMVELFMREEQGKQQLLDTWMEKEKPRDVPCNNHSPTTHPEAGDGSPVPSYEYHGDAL
Test: Inside-out patch recording of 1PBC block, mutant R535A
Type: cell-based
Conditions: 100 mV; 2 µM Ca2+
recorded metric: pIC50
Lab note — pIC50 values are minus log10 of concentrations in M.

Return pIC50 (reported value) for this compound: `N#Cc1c(C(F)(F)F)cc(O)n2c1nc1ccccc12`
5.26

---

target: mouse TMEM16A mutant S517A (Mus musculus, UniProt Q8BHY3, S517A); construct: expressed in transfected cells; host or cells: HEK293T; assay: Inside-out patch recording of 1PBC block, mutant S517A; format: cell-based; conditions: 20 mV; 2 µM Ca2+
recorded metric: pIC50
Lab note — pIC50 values are minus log10 of concentrations in M.

Return pIC50 (reported value) for this compound: N#Cc1c(C(F)(F)F)cc(O)n2c1nc1ccccc12 [1PBC]
5.42

---

Target: mouse TMEM16A mutant G510P (Mus musculus, UniProt Q8BHY3, G510P)
Construct: expressed in transfected cells; host or cells: HEK293T
Experiment: Inside-out patch recording of 1PBC block, mutant G510P
Format: cell-based
Conditions: -60 mV; 15 µM Ca2+
Procedure: HEK293T cells (ATCC CRL-1573) were maintained in Dulbecco’s modified Eagle’s medium (DMEM; Sigma-Aldrich) supplemented with 10 U ml^−1 penicillin, 0.1 mg ml^−1 streptomycin (Sigma-Aldrich), 2 mM L-glutamine (Sigma-Aldrich), and 10% FBS (Sigma-Aldrich) in a humidified atmosphere containing 5% CO2 at 37 °C. […]
recorded metric: IC50
Quote the value and follow it with the unit of measurement.

Return IC50 (reported value) for this compound: N#Cc1c(C(F)(F)F)cc(O)n2c1nc1ccccc12 [1PBC]
83.4 µM

---

Biological target: mouse TMEM16A mutant Y514A (Mus musculus, UniProt Q8BHY3, Y514A)
Construct: expressed in transfected cells; host or cells: HEK293T
Sequence (Q8BHY3 1-960 Y514A): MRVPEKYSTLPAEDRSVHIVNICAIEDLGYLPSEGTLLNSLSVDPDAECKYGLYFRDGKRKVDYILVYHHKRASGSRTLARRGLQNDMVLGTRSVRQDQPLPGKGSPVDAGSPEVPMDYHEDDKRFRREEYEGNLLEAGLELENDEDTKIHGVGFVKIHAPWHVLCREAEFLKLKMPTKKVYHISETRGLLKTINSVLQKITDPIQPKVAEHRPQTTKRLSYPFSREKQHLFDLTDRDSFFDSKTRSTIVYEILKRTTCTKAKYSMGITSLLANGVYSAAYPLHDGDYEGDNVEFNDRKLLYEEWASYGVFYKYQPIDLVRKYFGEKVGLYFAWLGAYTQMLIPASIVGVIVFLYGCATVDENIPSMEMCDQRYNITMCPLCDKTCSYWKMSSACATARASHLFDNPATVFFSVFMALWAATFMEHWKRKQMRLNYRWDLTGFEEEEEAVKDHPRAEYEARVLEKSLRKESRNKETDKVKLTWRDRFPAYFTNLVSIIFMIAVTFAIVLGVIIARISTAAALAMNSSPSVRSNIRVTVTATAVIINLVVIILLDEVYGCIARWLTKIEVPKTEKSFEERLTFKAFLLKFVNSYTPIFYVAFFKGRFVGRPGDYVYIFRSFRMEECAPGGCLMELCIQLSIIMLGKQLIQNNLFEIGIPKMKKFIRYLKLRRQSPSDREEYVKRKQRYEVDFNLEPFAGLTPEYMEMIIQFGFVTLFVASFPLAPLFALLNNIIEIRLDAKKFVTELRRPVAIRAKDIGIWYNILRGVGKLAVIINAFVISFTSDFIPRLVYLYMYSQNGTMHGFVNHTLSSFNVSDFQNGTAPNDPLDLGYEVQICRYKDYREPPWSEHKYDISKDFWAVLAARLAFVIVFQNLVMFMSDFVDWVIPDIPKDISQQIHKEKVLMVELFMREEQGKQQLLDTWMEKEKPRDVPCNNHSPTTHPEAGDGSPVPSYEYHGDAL
Assay: Inside-out patch recording of 1PBC block, mutant Y514A
Assay type: cell-based
Settings: -20 mV; 2 µM Ca2+
recorded metric: pIC50
Lab note — pIC50 values are minus log10 of concentrations in M.

Return pIC50 (reported value) for this molecule: N#Cc1c(C(F)(F)F)cc(O)n2c1nc1ccccc12 [1PBC]
4.57
